- assay_comment: Cytotoxicity assay
- Type: cell-based
- measurement_conditions: human; HEK293 cells; mean (n = 2); read-out: Cytotoxicity: concentration of compound at 50% cytotoxicity (IC50)

compound	IC50
Cc1cccc2c(CC(=O)NCCCNCCCCCCCCCCNCCCNC(=O)Cc3c[nH]c4c(C)cccc34)c[nH]c12.O=C(O)C(F)(F)F.O=C(O)C(F)(F)F [Compound 20e]	> 37 µM
Cc1ccc2[nH]cc(CC(=O)NCCCNCCCCCCCCCCCCNCCCNC(=O)Cc3c[nH]c4ccc(C)cc34)c2c1.O=C(O)C(F)(F)F.O=C(O)C(F)(F)F [Compound 17f]	> 36 µM
COc1cccc2c(CC(=O)NCCCNCCCCCCCCCCCCNCCCNC(=O)Cc3c[nH]c4c(OC)cccc34)c[nH]c12.O=C(O)C(F)(F)F.O=C(O)C(F)(F)F [Compound 19f]	> 35 µM
O=C(Cc1c[nH]c2ccc(Br)cc12)NCCCNCCCCCCCCCCCCNCCCNC(=O)Cc1c[nH]c2ccc(Br)cc12.O=C(O)C(F)(F)F.O=C(O)C(F)(F)F [Compound 15f]	4.75 µM
COc1ccc2[nH]cc(CC(=O)NCCCNCCCCCCCCCCCCNCCCNC(=O)Cc3c[nH]c4ccc(OC)cc34)c2c1.O=C(O)C(F)(F)F.O=C(O)C(F)(F)F [Compound 16f]	> 35 µM
Cc1cccc2c(CC(=O)NCCCNCCCCCCCCCCCCNCCCNC(=O)Cc3c[nH]c4c(C)cccc34)c[nH]c12.O=C(O)C(F)(F)F.O=C(O)C(F)(F)F [Compound 20f]	> 36 µM
O=C(Cc1c[nH]c2c(F)cccc12)NCCCNCCCCCCCCCCCCNCCCNC(=O)Cc1c[nH]c2c(F)cccc12.O=C(O)C(F)(F)F.O=C(O)C(F)(F)F [Compound 18f]	27.2 µM
CC/C(=C(\c1ccccc1)c1ccc(OCCN(C)C)cc1)c1ccccc1 [tamoxifen, reference compound]	24 µM
O=C(Cc1c[nH]c2ccc(Br)cc12)NCCCNCCCCCCNCCCNC(=O)Cc1c[nH]c2ccc(Br)cc12.O=C(O)C(F)(F)F.O=C(O)C(F)(F)F [Compound 15b]	> 34 µM
O=C(Cc1c[nH]c2ccccc12)NCCCNCCCCCCCCNCCCNC(=O)Cc1c[nH]c2ccccc12.O=C(O)C(F)(F)F.O=C(O)C(F)(F)F [Compound 14d]	> 40 µM
COc1cccc2c(CC(=O)NCCCNCCCCNCCCNC(=O)Cc3c[nH]c4c(OC)cccc34)c[nH]c12.O=C(O)C(F)(F)F.O=C(O)C(F)(F)F [Compound 19a]	> 40 µM

###

Overview of recorded Dox/P. a: concentration required to restore doxycycline activity (combination MIC) for various compounds
- Tested on: P. aeruginosa ATCC 27853
- assay_comment: Enhancement of doxycycline action against P. aeruginosa
- Assay type: cell-based, Pseudomonas aeruginosa
- measurement_conditions: doxycycline at 4.5 µM
result_type: Dox/P. a: concentration required to restore doxycycline activity (combination MIC) (µM)

compound	subject_of_test	result_qualifier	observed_value
Cc1cccc2c(CC(=O)NCCCNCCCCCCNCCCNC(=O)Cc3c[nH]c4c(C)cccc34)c[nH]c12.O=C(O)C(F)(F)F.O=C(O)C(F)(F)F [Compound 20b]	P. aeruginosa ATCC 27853	=	250
O=C(Cc1c[nH]c2ccccc12)NCCCNCCCCCCCCCCNCCCNC(=O)Cc1c[nH]c2ccccc12.O=C(O)C(F)(F)F.O=C(O)C(F)(F)F [Compound 14e]	P. aeruginosa ATCC 27853	=	15.1
Cc1ccc2[nH]cc(CC(=O)NCCCNCCCCCCCNCCCNC(=O)Cc3c[nH]c4ccc(C)cc34)c2c1.O=C(O)C(F)(F)F.O=C(O)C(F)(F)F [Compound 17c]	P. aeruginosa ATCC 27853	=	123
COc1cccc2c(CC(=O)NCCCNCCCCCCNCCCNC(=O)Cc3c[nH]c4c(OC)cccc34)c[nH]c12.O=C(O)C(F)(F)F.O=C(O)C(F)(F)F [Compound 19b]	P. aeruginosa ATCC 27853	>	240
Cc1cccc2c(CC(=O)NCCCNCCCCCCCNCCCNC(=O)Cc3c[nH]c4c(C)cccc34)c[nH]c12.O=C(O)C(F)(F)F.O=C(O)C(F)(F)F [Compound 20c]	P. aeruginosa ATCC 27853	=	123
O=C(Cc1c[nH]c2ccc(Br)cc12)NCCCNCCCCCCCCCCNCCCNC(=O)Cc1c[nH]c2ccc(Br)cc12.O=C(O)C(F)(F)F.O=C(O)C(F)(F)F [Compound 15e]	P. aeruginosa ATCC 27853	=	12.7
COc1cccc2c(CC(=O)NCCCNCCCCCCCNCCCNC(=O)Cc3c[nH]c4c(OC)cccc34)c[nH]c12.O=C(O)C(F)(F)F.O=C(O)C(F)(F)F [Compound 19c]	P. aeruginosa ATCC 27853	=	118
COc1cccc2c(CC(=O)NCCCNCCCCCCCCCCCCNCCCNC(=O)Cc3c[nH]c4c(OC)cccc34)c[nH]c12.O=C(O)C(F)(F)F.O=C(O)C(F)(F)F [Compound 19f]	P. aeruginosa ATCC 27853	=	218
O=C(Cc1c[nH]c2ccccc12)NCCCNCCCCCCNCCCNC(=O)Cc1c[nH]c2ccccc12.O=C(O)C(F)(F)F.O=C(O)C(F)(F)F [Compound 14b]	P. aeruginosa ATCC 27853	=	129
Cc1ccc2[nH]cc(CC(=O)NCCCNCCCCNCCCNC(=O)Cc3c[nH]c4ccc(C)cc34)c2c1.O=C(O)C(F)(F)F.O=C(O)C(F)(F)F [Compound 17a]	P. aeruginosa ATCC 27853	=	129
Cc1cccc2c(CC(=O)NCCCNCCCCCCCCCCNCCCNC(=O)Cc3c[nH]c4c(C)cccc34)c[nH]c12.O=C(O)C(F)(F)F.O=C(O)C(F)(F)F [Compound 20e]	P. aeruginosa ATCC 27853	>	233
